Hello, the source for this data is PubChem BioAssay (NCI), in case you need it.

- Tested on: SF-268 CNS
- Experimental protocol: NCI-60 one-dose screen, 48 h (100 = growth as untreated, 0 = no growth, -100 = all killed)
- Stated conditions: 10 µM unless noted
The panel holds about 83,000 compounds, 20% with a hit somewhere; the sample as a whole holds those more often.
# growth >= 50% gives 1, anything below gives 0

Compound: O=[N+]([O-])c1ccc(-c2cc3c(Nc4ccc(OCc5cccc(Cl)c5)c(Cl)c4)ncnc3s2)cc1
Group label: 1

Compound: CCN(CC)CCOc1ccc(/C(=C(\C)c2ccc(F)c(OC)c2)c2ccc(Cl)cc2)cc1
Group label: 1

Compound: CCN(CC)CCCC(C)NCc1ccccc1 (stereo not given)
Group label: 1

Compound: Cc1ccc2c(n1)C(=O)C(Oc1ccc(F)cc1)=CC2=O
Group label: 1

Compound: COc1cc(C(=O)Nc2cc(O)c(CC=C(C)C)c(O)c2)cc2c1O[C@]1(C)CC[C@@H](O)C(C)(C)[C@H]1C2
Group label: 0

----------
Known growth of a selection of compounds
- Test system: A498 renal
- Experimental protocol: NCI-60 one-dose screen, 48 h (100 = growth as untreated, 0 = no growth, -100 = all killed)
- Stated conditions: 10 µM unless noted
- Experimental: Growth inhibition of the A498 human tumor cell line is measured as a screen for anti-cancer activity. Cells are grown in 96 well plates and exposed to the test compound for 48 hours. Compounds are tested at a single concentration, which is 10^-5 M for most compounds. The reported endpoint is percent growth (GI% or GIPRCNT), where numbers from 0 - 100% represent growth inhibition, and numbers from -100% - 0 represent cell death. For example, a value of 40 represents 60% growth inhibition. […]
The panel holds about 83,000 compounds, 20% with a hit somewhere; the sample as a whole holds those more often.

Smiles structure: CN(C)S(=O)(=O)n1cnc([C@@H]2[C@@H]3C(=O)OC[C@@H]3C[C@]23N=CN(Cc2ccccc2)C3=O)c1
growth [%]: 99.5

Smiles structure: CCN(CC)CCOC(=O)N1c2ccccc2Sc2ccccc21
growth [%]: 97.1

Smiles structure: CCN(CC)N=Nc1nn(C(=O)Nc2ccc(Cc3ccccc3)cc2)c2ccc(Cl)cc12
growth [%]: 87.9

Smiles structure: CCCCCOC(=O)c1ccc(NC(=O)CNCC(C)C)cc1
growth [%]: 71.8

Smiles structure: O=C(O)c1ccccc1C(=O)Nc1ccc(Cl)cc1
growth [%]: 108

Smiles structure: CC(=O)NCC(=O)Nc1ccc(-c2nnc3ccccn23)nc1.CC(=O)NCC(=O)Nc1ccc(-c2nnc3ccccn23)nc1.[Pt+2]
growth [%]: 101

Smiles structure: CCOc1cc(N)ccc1C(=O)NCCCN(CC)CC
growth [%]: 66.5

Smiles structure: Cc1ccc(/C(=N\N=C(N)N)c2ccccc2)cc1
growth [%]: 20.1

Smiles structure: Oc1ccccc1-c1nc2ccccn2c1NCCN1CCOCC1
growth [%]: 89.5

Smiles structure: O=S(=O)(Nc1ccsc1-c1nc(-c2ccccc2)no1)c1cc(Cl)cc(Cl)c1
growth [%]: 91.1

Smiles structure: CCOC(=O)c1ccc(NC(=O)CCCN(CC)CC)cc1
growth [%]: 118

----------
Form field: growth (one value per entry).
- System: HOP-62 NSCLC
- Experimental protocol: NCI-60 one-dose screen, 48 h (100 = growth as untreated, 0 = no growth, -100 = all killed)
- Stated conditions: 10 µM unless noted
About 83,000 compounds went through this panel and 20% of them were active in at least one assay; those are over-represented in the sample as a whole.

Smiles structure: O=S(=O)(NCCNc1cc(-c2c(-c3cccc(O)c3)nc3sccn23)ccn1)c1ccc(Br)cc1
growth (%): 102

Smiles structure: O=C(CCCCCCCn1cc(-c2cccnc2)nn1)Nc1ccccc1-c1ccccc1
growth (%): 61.1

Smiles structure: C[C@@H]1C(=O)N(C[C@@H](Cc2ccccc2)NC(=O)OCc2ccccc2)[C@]1(Cc1ccccc1)C(=O)OCc1ccccc1
growth (%): 67.3

Smiles structure: Cc1nc(C)c(-c2nn3c(-c4cccc(F)c4)nnc3s2)s1
growth (%): 98.7

Smiles structure: CCOC(=O)c1c(C)nc2c(c1N)/C(=C/c1cc(OC)c(OC)c(OC)c1)C(=O)N2c1ccc(OC)cc1
growth (%): 128

----------
- Test system: RXF 393 renal
- Experimental protocol: NCI-60 one-dose screen, 48 h (100 = growth as untreated, 0 = no growth, -100 = all killed)
- Stated conditions: 10 µM unless noted
This is part of a sample that, as a whole, favours compounds with a hit. Of some 83,000 tested, about 20% had one in any assay.
Cut-off 40% on growth, inclusive. At or above means yes (1); below means no (0).

Smiles structure: CNC=O
Group label: yes (1)
//
Smiles structure: Cc1cc(N(CCCNc2ccnc3cc(Cl)ccc23)Cc2ccccn2)nc(N2CCCC2)n1
Group label: yes (1)
//
Smiles structure: CCCCCCNCc1cc(C(C)(C)C)cc(CNCCCCCC)c1O
Group label: no (0)
//
Smiles structure: CN1CCN(CCCOc2ccc3nc(Nc4cc(Cl)cc(Cl)c4)ccc3c2)CC1
Group label: no (0)
//
Smiles structure: CC(=O)NCC(=O)Nc1ccc(-c2nnc3ccccn23)nc1.CC(=O)NCC(=O)Nc1ccc(-c2nnc3ccccn23)nc1.[Pt+2]
Group label: yes (1)
//
Smiles structure: CN(C)S(=O)(=O)n1cnc([C@@H]2[C@@H]3C(=O)OC[C@@H]3C[C@]23N=CN(Cc2ccccc2)C3=O)c1
Group label: yes (1)
//
Smiles structure: Cl.[Pt].[c-]1ccccc1-c1ccccn1.c1ccc(P(c2ccccc2)C([PH+](c2ccccc2)c2ccccc2)[PH+](c2ccccc2)c2ccccc2)cc1
Group label: no (0)
//
Smiles structure: O=C(NC(=S)Nc1ccc(-c2nc3ccccc3[nH]2)cc1)c1ccc2ccccc2c1
Group label: no (0)

----------
- System: SN12C renal
- Experimental protocol: NCI-60 one-dose screen, 48 h (100 = growth as untreated, 0 = no growth, -100 = all killed)
- Stated conditions: 10 µM unless noted
This is part of a sample that, as a whole, favours compounds with a hit. Of some 83,000 tested, about 20% had one in any assay.
Sorting guide: entries reporting growth beneath 50% go in the met pile, the rest go in the not met pile.

Molecule: CCCCN(CCCC)CCCn1c(=O)c2sc3ncccc3c2n2nnc(-c3ccccc3)c12
Group label: not met
//
Molecule: C=C1c2c(C)nn(-c3ccc(NC(C)=O)cc3)c2N(C)C23CC1C1(C)c4c(C)nn(-c5ccc(NC(C)=O)cc5)c4N(C)C(C)(CC12)C3 (stereo not given)
Group label: met
//
Molecule: N=c1ccn2c(n1)OC1C(O)C(CO)OC12 (stereo not given)
Group label: met
//
Molecule: CN1CCN(CCCOc2ccc3nc(Nc4cc(Cl)cc(Cl)c4)ccc3c2)CC1
Group label: met
//
Molecule: COc1ccc(-c2nc3ccccn3c2/C=C/C(=O)c2cc(OC)c(OC)c(OC)c2)cc1
Group label: not met
//
Molecule: CC(=O)c1sc(-c2ccccc2)cc1N
Group label: not met
//
Molecule: N#C/C(=C\c1ccc2c(c1)OCO2)n1nnc2ccccc21
Group label: met
//
Molecule: COc1ccc(/C=N/NC(=O)Cn2c(-c3ccc(S(C)(=O)=O)cc3)nc3cc(Cl)ccc32)cc1
Group label: met
//
Molecule: CCCc1nc2ccccn2c1Nc1ccc(C(=O)NO)cc1
Group label: not met
//
Molecule: Cc1nn(Cc2ccccc2)cc1C(=O)Nc1sc2c(c1C(N)=O)CCC(=O)C2
Group label: met

----------
- Test system: MDA-MB-435 melanoma
- Experimental protocol: NCI-60 one-dose screen, 48 h
- Stated conditions: 10 µM unless noted
This is part of a sample that, as a whole, favours compounds with a hit. Of some 83,000 tested, about 20% had one in any assay. Calls of active or inactive are those of the source. How the source made its calls: active means growth percent below 10; inactive means the rest.
Outcome codes: label 1 (active), label 0 (inactive)

Compound: Cc1c(C(N)=O)sc2nc(C)n(/N=c3\scc(-c4ccccc4)n3Cc3ccccc3)c(=O)c12
Group label: label 0
//
Compound: COc1ccc2c(c1)/C(=C\c1sc(=S)[nH]c1O)C(C(=O)O)=N2
Group label: label 0
//
Compound: O=C1CSC(c2ccc(O)cc2)N1c1nnc(Cn2cnnc2)o1 (stereo not given)
Group label: label 1
//
Compound: CCCCCCNc1cc(C)nc2ccc(OC)cc12
Group label: label 0
//
Compound: OCCCCc1nccc2c1[nH]c1ccccc12
Group label: label 0
//
Compound: C=C1C(=O)O[C@H]2[C@H]1CC/C(COC(=O)/C=C/C(=O)NCc1ccc(Cn3c(=O)sn(-c4ccccc4)c3=O)cc1)=C\CC[C@@]1(C)O[C@@H]21
Group label: label 1
//
Compound: COC(=O)Nc1nc2ccc(C(=O)C3CC3)cc2[nH]1
Group label: label 1
//
Compound: C(=C\c1nc2ccccc2[nH]1)/c1nc2ccccc2[nH]1
Group label: label 0
//
Compound: O=C(/C=C/C12c3ccccc3C(c3ccccc31)C1C(=O)N(c3ccccc3)C(=O)C12)c1ccc(Cl)cc1 (stereo not given)
Group label: label 1
//
Compound: Cc1nn(Cc2ccccc2)cc1C(=O)Nc1sc2c(c1C(N)=O)CCC(=O)C2
Group label: label 0
//
Compound: CCOC(=O)c1c2c(c(C)n1C)-c1nn(Cc3ccc(OC)cc3)cc1CC2
Group label: label 0
//
Compound: CCN(CC)S(=O)(=O)c1ccc(O)c(NC(=O)c2[nH]c(C)c(C(C)=O)c2CCc2ccc(Cl)cc2)c1
Group label: label 0
//
Compound: CS(=O)(=O)c1ccc(-c2[nH]c3ccc(F)cc3c2/C=N/NC(N)=S)cc1
Group label: label 1
//
Compound: C[C@@H](C[C@H](CCOCc1cccnc1)c1ccccc1)c1cc2ccccc2o1
Group label: label 0
//
Compound: CN1C[C@@H](c2ccc(Cl)cc2)[C@]2(NC(=S)N(c3ccc(F)c(Cl)c3)C2=O)[C@@]12C(=O)NC1C=CC(Cl)=C[C@H]12 (stereo not given in full)
Group label: label 0
//
Compound: O=C1c2ccccc2C2(c3ccc(O)cc3)c3ccccc3Oc3cccc1c32 (stereo not given)
Group label: label 1
//
Compound: O=C1Nc2ccccc2SC1c1ccccc1Cl (stereo not given)
Group label: label 1
//
Compound: O=C1C2=C(CCN(Cc3ccccc3)C2)N2CCN=C2N1Cc1ccc(F)cc1F
Group label: label 0
//
Compound: COc1ccc(/C(C)=N/NS(=O)(=O)c2ccc(C)cc2)cc1OC
Group label: label 0
//
Compound: COc1c(C)cnc(CSc2nc(-c3ccc(C)cc3)cn2-c2ccc(Cl)cc2)c1C
Group label: label 0
